Assay notes: stability test in liver microsomes (monkey)
Type: in vitro ADME
Test conditions: Monkey liver microsomes
Method: The stability of the compound of the present invention in liver microsomes of rat, monkey and human was determined. Tested compounds of the present invention were the compounds in Examples 6 and 8 , and a control drug was Zavegepant. […] A peak area was determined by an extracted ion chromatogram. A slope value k was determined by linear regression of a remaining percentage of a parent drug relative to a natural logarithm of an incubation time curve. […]
Measured quantity: microsomal CLint at 1 µM (µL/min/mg)
One number for each entry, in µL/min/mg.

Which microsomal CLint at 1 µM value belongs to [2H]C([2H])([2H])N1CCC(N2CCN(C(=O)[C@@H](Cc3cc(C)c4[nH]ncc4c3)NC(=O)N3CCC(c4cc5c([nH]c4=O)SCC5)CC3)CC2)CC1 ? 1.6
